Below, each entry is listed alongside its reported cell viability.
system: NOMO1; experiment: cell viability relative to DMSO control; higher = less cytotoxic; conditions: RPMI 5 mM glucose + 10% FBS; 48 h; 0.19 µM
Give the value in % but do not write % after it.

smiles_repr=N#C[C@H](O[C@@H]1O[C@H](CO[C@@H]2O[C@H](CO)[C@@H](O)[C@H](O)[C@H]2O)[C@@H](O)[C@H](O)[C@H]1O)c1ccccc1 target_of_assay=NOMO1 obs_value=93.5
smiles_repr=OCCC#Cc1nc(-c2ccc(F)cc2)c(-c2ccncc2)n1CCCc1ccccc1 target_of_assay=NOMO1 obs_value=138
smiles_repr=O=C(/C=C/c1ccc(O)cc1)c1ccc(O)cc1O target_of_assay=NOMO1 obs_value=110
smiles_repr=OC1=CC2=C(C(=C1)O)C(=O)\C(=C(/O2)C3=CC(=C(O)C=C3)O)O target_of_assay=NOMO1 obs_value=108

Here's the next entry for you.
Record CCN(c1ccccc1)c1cc(NC)[n+](C)c(C)n1 , field cell viability: 104
